Measured Kd (PRMT5•MTA (biotinylated PRMT5-MEP50) (Homo sapiens (Human), UniProt O14744))
Numbers only here, please. The scale is nM.

Would you please look over these solved cases?
COMPOUND	Kd, nM
CC(=O)N(C)Cc1cc2nc(N)c(C)cc2[nH]1	17
Cc1cc2[nH]c(-n3cnc(Br)c3)cc2nc1N	680
CC(=O)N(C)Cc1cc2nc(N)c(C)cc2n1C(C)=O	43
Nc1nc2cc(NC(=O)c3ccccc3F)[nH]c2cc1Br	1890
CC(=O)NCc1cc2nc(N)c(C)cc2[nH]1	12

Prompt: Request the reported Kd associated with Cc1cc(N)nc2cc(CNC(=O)c3ccccc3)cnc12 [Example 7-1]
Response: 94

Prompt: Item: Cc1cc(N)nc2cc(Oc3cccnc3)cnc12
Response: 2460

Prompt: Item: Cc1cc2c(cc(CNC(=O)c3ccccc3)n2C2CC2)nc1N
Response: 66

Prompt: Item: Cc1cc(N)nc2cc(CNC(=O)c3ccncn3)cnc12
Response: 151

Prompt: Item: Cc1cc(N)nc2cc(Cc3cccnc3)cnc12
Response: 232

###

Reported values of log10 IC50 for individual entries
Biological target: recombinant human dual expressed Avi PRMT5/His-MEP50 protein (Homo sapiens (Human), UniProt O14744)
Sequence (O14744 2-637): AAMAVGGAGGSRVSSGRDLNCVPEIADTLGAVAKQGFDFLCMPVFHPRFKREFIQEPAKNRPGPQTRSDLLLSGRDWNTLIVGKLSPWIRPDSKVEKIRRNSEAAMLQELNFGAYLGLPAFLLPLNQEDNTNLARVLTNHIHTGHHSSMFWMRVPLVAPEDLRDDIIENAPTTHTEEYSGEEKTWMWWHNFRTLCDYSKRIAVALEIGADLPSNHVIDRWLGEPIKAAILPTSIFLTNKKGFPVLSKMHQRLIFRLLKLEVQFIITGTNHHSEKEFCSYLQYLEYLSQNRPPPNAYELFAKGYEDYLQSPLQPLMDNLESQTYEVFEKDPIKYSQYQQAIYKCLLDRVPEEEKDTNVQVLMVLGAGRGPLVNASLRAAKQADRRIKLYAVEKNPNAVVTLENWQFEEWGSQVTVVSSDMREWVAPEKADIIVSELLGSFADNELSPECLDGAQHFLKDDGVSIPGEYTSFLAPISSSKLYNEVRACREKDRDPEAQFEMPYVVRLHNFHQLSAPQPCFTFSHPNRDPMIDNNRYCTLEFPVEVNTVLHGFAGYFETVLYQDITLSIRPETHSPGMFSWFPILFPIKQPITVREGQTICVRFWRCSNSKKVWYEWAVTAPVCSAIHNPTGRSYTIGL
Sequence (Q9BQA1 2-342 partner): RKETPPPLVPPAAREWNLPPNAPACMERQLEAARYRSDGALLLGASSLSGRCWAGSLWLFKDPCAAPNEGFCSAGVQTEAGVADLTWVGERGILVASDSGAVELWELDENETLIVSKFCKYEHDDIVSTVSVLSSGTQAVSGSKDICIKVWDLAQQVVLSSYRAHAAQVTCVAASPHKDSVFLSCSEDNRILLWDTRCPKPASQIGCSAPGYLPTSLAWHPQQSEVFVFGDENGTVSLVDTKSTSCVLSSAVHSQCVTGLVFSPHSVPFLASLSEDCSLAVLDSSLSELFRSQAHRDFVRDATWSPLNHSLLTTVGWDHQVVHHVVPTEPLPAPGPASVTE
Assay: HTRF binding assay in presence of MTA
Details: 30 μM MTA
Answers are given as log10 of IC50 in µM.

Would you please look over these solved cases?
SUBSTANCE_SMILES	EXPERIMENTAL_VALUE
CC(=O)N(C)Cc1cc2nc(N)c(C)cc2[nH]1	-0.91
CC(=O)N(Cc1cnc2c(C)cc(N)nc2c1)c1ccc2ccccc2c1C#N	-2.52
Cc1cc2[nH]c(Cn3ccc4ccccc4c3=O)cc2nc1N	-2.10
Nc1ccc2[nH]c(NC(=O)c3ccccc3)cc2n1	1.26

Now take the following molecule into account.
Prompt: Request the reported log10 IC50 associated with Cc1cc(N)nc2ccc(-c3ccccc3F)nc12
Response: 1.00

###

Biological target: recombinant human dual expressed Avi PRMT5/His-MEP50 protein (Homo sapiens (Human), UniProt O14744)
Test: HTRF binding assay in presence of MTA
Settings: 30 μM MTA
Hi! Could you tag entries with IC50 below 10 µM as T, and those at or above as F? Much appreciated.

MOLECULE	CAT
Cc1cc(N)nc2ccc(-c3cnsc3)nc12 [Example 4-6]	F

Prompt: Could you please tell me whether IC50 recorded for Cc1cc(N)nc2ccc(-c3cccnc3)nc12 [Example 4-3] is less than 10 µM?
Response: F

Prompt: Item: Cc1cc2[nH]c(N3CC(=O)NC3=O)cc2nc1N [Example 13-7]
Response: T

Prompt: Item: Cc1cc(N)nc2cc(Cc3ccncc3)cnc12 [Example 2-8]
Response: F

Prompt: Item: Cc1cc(N)nc2ccc(-c3ccccn3)nc12 [Example 4-2]
Response: F

Prompt: Item: Cc1cc(N)nc2cc(CNC(=O)c3ccccc3)cnc12 [Example 7-1]
Response: T

Prompt: Item: Cc1cc(N)nc2ccc(-c3ccc(F)cc3)nc12 [Example 4-9]
Response: F

Prompt: Item: Cc1cc2[nH]c(CN3C(=O)c4ccccc4C3=O)cc2nc1N [Example 14-1]
Response: T

Prompt: Item: CC(=O)NCc1cc2nc(N)c(C)cc2n1C(C)=O [Example 15-7]
Response: T
